B1: HDV Ribozyme (parent)
chain: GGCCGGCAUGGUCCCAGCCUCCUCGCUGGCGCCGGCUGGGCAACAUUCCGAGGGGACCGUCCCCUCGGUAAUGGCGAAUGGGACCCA

variants of: B1; experiment: self-cleavage, relative activity (ratio to wild type); higher = more cleavage; co-transcriptional
I would appreciate it if you labelled entries criterion met when self-cleavage is 0.4 or higher, otherwise criterion not met.

Record excerpt, results attached:
>>> df
   residue_change        group_label
0       C24U G55U      criterion met
1       G81A G82C  criterion not met
2       C14G C33G  criterion not met

Query :: Quick check: does C21G G39U have self-cleavage greater than or equal to 0.4?
Result :: criterion not met

Query :: Quick check: does G52U C85G have self-cleavage greater than or equal to 0.4?
Result :: criterion met

Query :: Quick check: does G11C C63G have self-cleavage greater than or equal to 0.4?
Result :: criterion met

Query :: Quick check: does G1U G52U have self-cleavage greater than or equal to 0.4?
Result :: criterion not met

Origin of measurements: the RNAGym collection of RNA variant scans (doi:10.7554/elife.80360)
